Source listed as ChEMBL document CHEMBL3875189.

Tested on: Sphingosine 1-phosphate receptor 5 (Homo sapiens)
Assay info: Agonist activity at recombinant human S1PR5 expressed in CHO cell membranes assessed as [35S]GTP-gammaS binding measured after 1.5 hrs by TopCount scintillation counting method relative to S1P
Endpoint name: Efficacy
Please report the result as a number followed by the unit.

A selection of reference data follows.
O=C(O)CNCc1cc2c(-c3ccc4ccccc4c3)cccc2s1 : 47%
O=C(O)CCCCNCc1cc2cccc(-c3ccc4ccccc4c3)c2s1 : 37%
O=C(O)CCCNCc1cc2c(-c3ccc4ccccc4c3)cccc2s1 : 69%
O=C(O)CCCNCc1cc2cc(-c3ccc4ccccc4c3)ccc2s1 : 65%
O=C(O)C1CN(Cc2cc3cc(-c4ccc5ccccc5c4)ccc3s2)C1 : 50%
O=C(O)Cc1cccc(NCc2cc3cccc(-c4ccc5ccccc5c4)c3s2)c1 : 22%
NC(CNCc1cc2cc(-c3ccc4ccccc4c3)ccc2s1)C(=O)O (stereo unspecified) : 69%
O=C(O)c1ccc(CNCc2cc3c(-c4ccc5ccccc5c4)cccc3s2)cc1 : 53%
O=C(O)CCCNCc1cc2cccc(-c3cccc(-c4ccccc4)c3)c2s1 : 18%
O=C(O)CCCNCc1cc2cccc(-c3ccc(C(F)(F)F)cc3)c2s1 : 15%

Turning to the following compound.
INPUT: Name the recorded Efficacy for NC(CNCc1cc2cccc(-c3ccc4ccccc4c3)c2s1)C(=O)O (stereo unspecified) .
OUTPUT: 35%

----------
Tested on: Sphingosine 1-phosphate receptor 5 (Homo sapiens)
Assay info: Agonist activity at recombinant human S1PR5 expressed in CHO cell membranes assessed as [35S]GTP-gammaS binding measured after 1.5 hrs by TopCount scintillation counting method relative to S1P
Efficacy listing for selected molecules.
Your answer is read as %, so omit the unit and give the number.

O=C(O)CCCCNCc1cc2c(-c3ccc4ccccc4c3)cccc2s1 : 47
O=C(O)CCCNCc1cc2cccc(-c3ccc4c(c3)OCO4)c2s1 : 26
CCc1ccccc1-c1cccc2sc(CNc3ccc(CC(=O)O)cc3)cc12 : 9

INPUT: Name the recorded Efficacy for O=C(O)Cc1cccc(NCc2cc3c(-c4ccc5ccccc5c4)cccc3s2)c1 .
OUTPUT: 23

INPUT: Name the recorded Efficacy for CCc1ccccc1-c1cccc2cc(CNCC(N)C(=O)O)sc12 (stereo unspecified) .
OUTPUT: 25

----------
Tested on: Sphingosine 1-phosphate receptor 5 (Homo sapiens, UniProt Q9H228)
Sequence (Q9H228 whole entry): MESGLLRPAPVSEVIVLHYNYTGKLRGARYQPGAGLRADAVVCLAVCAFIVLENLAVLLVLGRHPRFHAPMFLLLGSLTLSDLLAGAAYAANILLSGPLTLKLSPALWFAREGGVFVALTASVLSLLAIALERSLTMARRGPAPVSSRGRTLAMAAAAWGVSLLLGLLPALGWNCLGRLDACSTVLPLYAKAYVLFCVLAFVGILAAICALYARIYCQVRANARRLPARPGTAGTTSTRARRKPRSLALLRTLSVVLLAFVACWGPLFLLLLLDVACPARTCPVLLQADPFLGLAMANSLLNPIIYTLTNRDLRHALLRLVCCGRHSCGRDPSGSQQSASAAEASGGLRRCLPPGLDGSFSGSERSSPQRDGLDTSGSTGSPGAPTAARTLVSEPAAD
Assay info: Agonist activity at recombinant human S1PR5 expressed in CHO cell membranes assessed as [35S]GTP-gammaS binding measured after 1.5 hrs by TopCount scintillation counting method
EC50 listing for selected molecules.

A selection of reference data follows.
O=C(O)c1ccc(CNCc2cc3cc(-c4ccc5ccccc5c4)ccc3s2)cc1 : > 100 µM
CCc1ccccc1-c1cccc2sc(CNCC(=O)O)cc12 : > 100 µM

Turning to the following molecule.
INPUT: Name the recorded EC50 for CCc1ccccc1-c1cccc2cc(CNCc3ccc(C(=O)O)cc3)sc12 .
OUTPUT: > 100 µM

----------
Tested on: Sphingosine 1-phosphate receptor 1 (Homo sapiens)
Sequence (P21453 whole entry): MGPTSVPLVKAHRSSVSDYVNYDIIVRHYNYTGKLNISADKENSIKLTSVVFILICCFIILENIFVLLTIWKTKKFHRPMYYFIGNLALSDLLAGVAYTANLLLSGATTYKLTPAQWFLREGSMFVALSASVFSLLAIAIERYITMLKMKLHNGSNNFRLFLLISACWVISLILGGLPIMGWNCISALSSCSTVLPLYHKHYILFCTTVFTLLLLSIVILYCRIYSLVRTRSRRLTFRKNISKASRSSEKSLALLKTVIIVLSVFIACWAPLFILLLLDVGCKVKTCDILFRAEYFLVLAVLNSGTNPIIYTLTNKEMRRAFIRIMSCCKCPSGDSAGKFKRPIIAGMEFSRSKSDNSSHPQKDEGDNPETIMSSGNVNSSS
Assay info: Agonist activity at recombinant human S1PR1 expressed in CHO cell membranes assessed as [35S]GTP-gammaS binding measured after 1.5 hrs by TopCount scintillation counting method
Endpoint name: EC50

A selection of reference data follows.
O=C(O)CCCNCc1cc2c(-c3ccc4ccccc4c3)cccc2s1 : > 100 µM
O=C(O)c1ccc(CNCc2cc3c(-c4ccc5ccccc5c4)cccc3s2)cc1 : > 100 µM

Turning to the following compound.
INPUT: Name the recorded EC50 for O=C(O)CCNCc1cc2c(-c3ccc4ccccc4c3)cccc2s1 .
OUTPUT: > 100 µM
